Catalogue of shrunken log2 fold change readings, one per entry.
System: Escherichia coli TOP10
Assay Notes: shrunken log2 fold change of peptide-encoding DNA abundance (4.5 h post-induction vs induction); higher = less antimicrobial activity (less host growth inhibition)
Experimental Context: time post-induction: 4.5 h; library: site-saturation at positions 5, 18, 19, 20

# Monomer Sequence, System Name, shrunken log2 fold change
data = [
    ("RRIRSRPPRLPRPRPRPNCLPRP", "Escherichia coli TOP10", -0.28),
    ("RRIRRRPPRLPRPRPRPKEVPRP", "Escherichia coli TOP10", 0.195),
    ("RRIRLRPPRLPRPRPRPLGDPRP", "Escherichia coli TOP10", 0.015),
    ("RRIRPRPPRLPRPRPRPNHSPRP", "Escherichia coli TOP10", -0.553),
    ("RRIRYRPPRLPRPRPRPSADPRP", "Escherichia coli TOP10", -0.18),
    ("RRIRERPPRLPRPRPRPSLIPRP", "Escherichia coli TOP10", -2.26),
    ("RRIRDRPPRLPRPRPRPHPGPRP", "Escherichia coli TOP10", 0.163),
    ("RRIRVRPPRLPRPRPRPYHLPRP", "Escherichia coli TOP10", -0.184),
    ("RRIRNRPPRLPRPRPRPMCDPRP", "Escherichia coli TOP10", -0.386),
    ("RRIRNRPPRLPRPRPRPDDYPRP", "Escherichia coli TOP10", 0.00129),
    ("RRIRKRPPRLPRPRPRPNILPRP", "Escherichia coli TOP10", -0.193),
    ("RRIRSRPPRLPRPRPRPVITPRP", "Escherichia coli TOP10", -0.0353),
    ("RRIRHRPPRLPRPRPRPTIKPRP", "Escherichia coli TOP10", -0.304),
    ("RRIRARPPRLPRPRPRPQWKPRP", "Escherichia coli TOP10", 0.179),
    ("RRIRCRPPRLPRPRPRPHNSPRP", "Escherichia coli TOP10", -0.273),
]

====

System: Escherichia coli TOP10;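 note: peptides expressed intracellularly from a pBAD plasmid library in pooled LB shake-flask culture, induced with 0.3% L-arabinose, DNA abundance read by NGS, three biological replicates, DESeq2 with apeglm shrinkage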
Assay Notes: shrunken log2 fold change of peptide-encoding DNA abundance (4.5 h post-induction vs induction); higher = less antimicrobial activity (less host growth inhibition)
Experimental Context: time post-induction: 4.5 h; library: site-saturation at positions 5, 18, 19, 20
# shrunken log2 fold change per entry
Measured Quantity: shrunken log2 fold change

# Monomer Sequence, Endpoint Result
rows = [
    ("RRIRLRPPRLPRPRPRPVIQPRP", -0.0903),
    ("RRIRTRPPRLPRPRPRPSKYPRP", 0.557),
    ("RRIRCRPPRLPRPRPRPNKIPRP", -0.461),
    ("RRIRHRPPRLPRPRPRPFIQPRP", -0.577),
    ("RRIRCRPPRLPRPRPRPHWYPRP", -0.714),
    ("RRIRNRPPRLPRPRPRPYIGPRP", 0.0261),
    ("RRIRGRPPRLPRPRPRPRVKPRP", 0.856),
    ("RRIRARPPRLPRPRPRPYEYPRP", -0.04),
    ("RRIRIRPPRLPRPRPRPTFCPRP", -0.02),
    ("RRIRCRPPRLPRPRPRPKMPPRP", 0.0277),
    ("RRIRPRPPRLPRPRPRPEESPRP", -0.0202),
    ("RRIRIRPPRLPRPRPRPHGDPRP", -0.125),
    ("RRIRMRPPRLPRPRPRPQPCPRP", 0.376),
    ("RRIRSRPPRLPRPRPRPSQEPRP", -0.26),
    ("RRIRLRPPRLPRPRPRPCTPPRP", -0.172),
    ("RRIRTRPPRLPRPRPRPIIVPRP", -0.0629),
    ("RRIRKRPPRLPRPRPRPGLFPRP", 0.556),
    ("RRIRFRPPRLPRPRPRPRNNPRP", -0.381),
    ("RRIRIRPPRLPRPRPRPQFIPRP", -0.782),
    ("RRIRRRPPRLPRPRPRPDSLPRP", 0.0868),
    ("RRIRGRPPRLPRPRPRPPTWPRP", 0.466),
    ("RRIRPRPPRLPRPRPRPWESPRP", 0.0303),
    ("RRIRMRPPRLPRPRPRPAAPPRP", 1.65),
    ("RRIRWRPPRLPRPRPRPKKQPRP", 0.176),
    ("RRIRMRPPRLPRPRPRPEMAPRP", 3.69),
    ("RRIRKRPPRLPRPRPRPFMEPRP", -0.00271),
    ("RRIRSRPPRLPRPRPRPNKGPRP", -0.413),
    ("RRIRVRPPRLPRPRPRPMDSPRP", -0.134),
    ("RRIRQRPPRLPRPRPRPDNAPRP", -0.246),
    ("RRIRWRPPRLPRPRPRPCWHPRP", -0.259),
    ("RRIRARPPRLPRPRPRPEGDPRP", 1.39),
    ("RRIRHRPPRLPRPRPRPIMYPRP", -0.169),
]

Data origin, for the record: the supplement of paper PMC9112550
